# Tested on: SK-MEL-28 melanoma
# Measurement description: NCI-60 one-dose screen, 48 h (100 = growth as untreated, 0 = no growth, -100 = all killed)
# Condition: 10 µM unless noted
Compounds without any hit were thinned out: in the full panel of roughly 83,000, 20% have a hit.
The entries below are paired with their reported growth.
Attribute measured: growth (%)

> print(dat)
                                    molecule  measure.unit  value
 1                  Nc1ccc(Oc2ccccc2)c(Cl)c1             %    106
 2  CCC1C[N+]2=C(c3cc(OC)c(OC)cc3CC2)c2c1cc1n2CCc2cc(OC)c(OC)cc2-1 (stereo unspecified)             %   32.8
 3  Cc1onc(-c2ccccc2)c1C(=O)N/N=C/c1cc(Cl)cc(Cl)c1O             %   51.3
 4            O=C1/C(=C/c2ccccn2)CCc2ccccc21             %    111
 5                     O=C1Nc2ccc(Br)cc2C1=O             %    108
 6    Clc1ccccc1C(c1ccccc1)(c1ccccc1)n1ccnc1             %   55.5
 7  Cn1ccc(=Nc2ccc(NC(=O)c3ccc(N=c4ccn(C)c5ccc([N+](=O)[O-])cc45)cc3)cc2)cc1             %   87.3
 8             CCCCCCCCCCCCCCCCCC1=NCCCN1CCO             %    108
 9  COc1cc(OC)c(/C=C/c2c3ccccc3cc[n+]2C)c(OC)c1             %   30.1
10                    N=C(N)Sc1cccc[n+]1[O-]             %   26.1
11  CCCOC(=O)c1nc(N(CC2CCCCC2)C(=O)NC)sc1/N=C/c1ccccc1             %     35
